Recorded values, source patent US20200377594A1.

Biological target: T1, cynomolgus CD3 expressed on cynomolgus lymphocytes/PBMCs (cynomolgus monkey, UniProt Q95LI5 22-198)
T1 construct: also called cynomolgus CD3 epsilon
T1 sequence (Q95LI5 22-198): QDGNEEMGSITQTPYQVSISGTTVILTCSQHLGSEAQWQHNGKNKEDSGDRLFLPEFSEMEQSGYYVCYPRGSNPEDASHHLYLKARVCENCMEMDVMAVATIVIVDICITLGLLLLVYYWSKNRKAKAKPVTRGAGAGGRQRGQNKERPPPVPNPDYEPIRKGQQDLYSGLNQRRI
Assay: flow cytometry on cynomolgus PBMCs (lymphocyte gate), detection with anti-human F(ab')2-PE
PROPERTY NAME: EC50 (read off the curve)

Recorded results for 4 binders are shown here.
BINDER: SP34 (m/h chimeric) IgG (antibody, V domains shown, Murine SP34 variable domains tested as mouse/human chimeric IgG; also called SP34 IgG (m/h chimera)) VH: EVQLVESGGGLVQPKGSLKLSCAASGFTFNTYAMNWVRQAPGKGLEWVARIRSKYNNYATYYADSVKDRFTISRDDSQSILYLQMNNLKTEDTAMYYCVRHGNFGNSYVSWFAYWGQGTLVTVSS VL: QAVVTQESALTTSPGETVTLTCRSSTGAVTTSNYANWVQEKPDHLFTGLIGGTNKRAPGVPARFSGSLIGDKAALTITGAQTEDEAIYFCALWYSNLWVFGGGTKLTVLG
EC50 (read off the curve): ~3 nM

BINDER: mAb#Bremen (antibody, human IgG1, lambda, V domains shown) VH: EVQLVESGGGLVKPGGSLRLSCAASGFTFNTYAMNWVRQAPGKGLEWVGRIRSKYNNYATYYADSVKDRFTISRDDSKNTLYLQMNSLKTEDTAVYYCTTHGNFGNSYVSWFAYWGQGTLVTVSS VL: QTVVTQEPSLTVSPGGTVTLTCRSSTGAVTTSNYANWVQQKPGQAPRGLIGGTKFLAPGTPARFSGSLLGGKAALTLSGVQPEDEAEYYCALWYSNLWVFGGGTKLTVLG
EC50 (read off the curve): ~20 nM

BINDER: mAb#Freiburg (antibody, human IgG1, lambda, V domains shown) VH: EVQLVESGGGLVKPGGSLRLSCAASGFTFNTYAMNWVRQAPGKGLEWVGRIRSKYNNYATYYADSVKDRFTISRDDSKNTLYLQMNSLKTEDTAVYYCTTHGNFGNSYVSWFAYWGQGTLVTVSS VL: QTVVTQEPSLTVSPGGTVTLTCRSSTGAVTTSNYANWVQQKPGQAPRGLIGGTNKRAPGTPARFSGSLLGGKAALTLLGAQPEDEAEYYCALWYSNLWVFGGGTKLTVLG
EC50 (read off the curve): ~10 nM

BINDER: mAb#München (antibody, human IgG1, lambda, V domains shown, also called Munchen) VH: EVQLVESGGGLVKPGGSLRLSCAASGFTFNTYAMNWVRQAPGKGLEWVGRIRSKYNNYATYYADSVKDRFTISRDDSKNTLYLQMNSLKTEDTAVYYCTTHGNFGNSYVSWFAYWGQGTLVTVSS VL: QTVVTQEPSLTVSPGGTVTLTCRSSTGAVTTSNYANWVQQKPGQAPRGLIGGTKFLAPGTPARFSGSLLGGKAALTLLGAQPEDEAEYYCALWYSNLWVFGGGTKLTVLG
EC50 (read off the curve): ~20 nM

With those in mind, consider the next binder.
Field request: EC50 (read off the curve) | item: mAb#Gladbach (antibody, human IgG1, lambda, V domains shown) VH: QVQLVESGGGLVKPGGSLRLSCAASGFTFNTYAMNWIRQAPGKGLEWVSRIRSKYNNYATYYADSVKDRFTISRDNAKNSLYLQMNSLRAEDTAVYYCVRHGNFGNSYVSWFAYWGQGTLVTVSS VL: QTVVTQEPSLTVSPGGTVTLTCRSSTGAVTTSNYANWVQQKPGQAPRGLIGGTKFLAPGTPARFSGSLLGGKAALTLSGVQPEDEAEYYCALWYSNLWVFGGGTKLTVLG ~6 nM
